- Test system: U2OS
- ASSAY NOTES: Multiplex assay against U2OS
- Type: toxicity, cell-based
- CONDITION PARAMETERS: human, 24 h, 10 µM, compound concentration 10 uM, replicate 2
ENDPOINT: Population Fragmented Nuclei (%)

* CC(=O)Nc1cccc2c1c(Sc1ccc(Cl)cc1)c(C)n2CC(=O)O | 14
* Cc1cccc(NC(=O)CN2CCC(c3ccccn3)CC2)c1.Cl.Cl | 20
* CCCCCC(O)/C=C/[C@H]1C(=O)CC(O)C1C/C=C\CCCC(=O)O (stereo not given in full) | 16
* CCc1cc2cc(NS(=O)(=O)c3ccc(C#N)cc3)ccc2n(CC)c1=O | 14
* N#Cc1cc(F)cc(-c2nc(-c3ccc(F)cn3)no2)c1 | 9
